Source listed as the supplement of paper PMC10126150.

Tested on: ATP;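 also: ATP exposure 15 min at 22 °C before imaging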
Assay: switch fluorescence ratio, 500 uM ATP over buffer (Cy3 cluster intensity, sum of 5 cycles each) (fold (ratio)); higher = stronger signal-on switching upon ATP binding; sequences stand for … in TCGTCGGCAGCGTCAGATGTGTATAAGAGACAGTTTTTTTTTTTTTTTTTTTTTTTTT…TC
Conditions: aptamer strand: ATP DNA aptamer (quencher-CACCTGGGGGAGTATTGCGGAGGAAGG + anchor), 100 nM annealed; ATP concentration: 500 uM
reported-endpoint: switch fluorescence ratio
One number for each entry.

{"columns": ["sequence-text", "reported-endpoint", "value-observed"],
 "data": [
  ["GGGGGCGTAT", "switch fluorescence ratio", 1.05],
  ["CTGGTAATAT", "switch fluorescence ratio", 1.15],
  ["TCTTTTCAGC", "switch fluorescence ratio", 0.992],
  ["ATATGTGGGG", "switch fluorescence ratio", 1.01],
  ["GGGAGGGGGC", "switch fluorescence ratio", 1.01]
]}

I need switch fluorescence ratio for every entry listed below, if you could help.
1. ATGCAAACGA
2. TTTTTGGCGG
3. TAGCGTGTAG
4. TTGCCACTCT
5. TTTTTCGAGG
6. CGGATCTTTA
7. GTCTAAATCG
8. TTGAGGATCA

1. 1.23
2. 0.978
3. 1.02
4. 1.04
5. 0.997
6. 1.01
7. 0.981
8. 1.02
